Provenance of the data: the supplement of paper PMC10567573

B1: SPOPL (parent)
chain: PDDKLTLFCEVSVVQDSVNISGHT

# Variants of: B1
# method: protein stability index of a GFP-peptide fusion (GPS, HEK-293T) (PSI 1-6); higher = more stable;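 note: lentivirally expressed fusions sorted by FACS into six bins by GFP to DsRed ratio, PSI derived from sequencing read proportions per bin multiplied by bin number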
# recorded conditions: c terminus: a fixed tail appended
Entries are sorted into classes by protein stability index as follows: Low = under 2, Medium = from 2 up to 3, High = 3 and over

Solved entries:
variant_notation=C9A discrete_label=High
variant_notation=T6H discrete_label=Medium
variant_notation=P1L discrete_label=Medium

[ask] Kindly identify the class of E10F .
[reply] High

[ask] Kindly identify the class of Q15H .
[reply] Low

[ask] Kindly identify the class of V18P .
[reply] Medium

[ask] Kindly identify the class of F8C .
[reply] High

[ask] Kindly identify the class of E10H .
[reply] Medium
